binders and their reported hNK2 EC50 (intracellular calcium mobilization, FLIPR, CHO-hNK2 cells)
# STUDY_SYSTEM: T1, human NK2 Receptor (human, UniProt P21452 1-398)
# T1 sequence (looked up): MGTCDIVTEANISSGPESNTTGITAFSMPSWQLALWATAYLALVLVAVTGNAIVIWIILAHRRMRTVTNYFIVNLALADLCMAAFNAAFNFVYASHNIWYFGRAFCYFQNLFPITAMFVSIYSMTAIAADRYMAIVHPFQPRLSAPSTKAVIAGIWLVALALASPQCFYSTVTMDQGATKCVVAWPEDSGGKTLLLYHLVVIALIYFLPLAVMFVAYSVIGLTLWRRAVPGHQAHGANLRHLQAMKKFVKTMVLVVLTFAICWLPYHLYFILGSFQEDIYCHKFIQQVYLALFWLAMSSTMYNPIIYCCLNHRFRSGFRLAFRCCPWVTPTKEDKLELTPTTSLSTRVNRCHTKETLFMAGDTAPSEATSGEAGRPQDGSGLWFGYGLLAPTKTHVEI
# PROCEDURE_SUMMARY: cell-based or functional assay
Just the number please, in nM, no unit attached.

BINDER	TEST_VALUE
DRFVALM (HELM PEPTIDE1{D.R.F.V.[bAla].L.M.[am]}$$$$V2.0; N-terminus assumed; SMILES CSCC[C@H](NC(=O)[C@H](CC(C)C)NC(=O)CCNC(=O)[C@@H](NC(=O)[C@H](Cc1ccccc1)NC(=O)[C@H](CCCNC(=N)N)NC(=O)[C@@H](N)CC(=O)O)C(C)C)C(N)=O, synthetic heptapeptide analog of neurokinin A, Fmoc solid-phase synthesis; also called Compound I; Cmpd I) [Heptapeptide analog I, Asp-Arg-Phe-Val-(β-Ala)-Leu-Met-NH2]	0.15

Continue with the binder presented below.
**Q:** Value lookup for hNK2 EC50 (intracellular calcium mobilization, FLIPR, CHO-hNK2 cells); key = DRFVGLX (HELM PEPTIDE1{D.R.F.V.G.L.[Nle].[am]}$$$$V2.0; N-terminus assumed; SMILES CCCC[C@H](NC(=O)[C@H](CC(C)C)NC(=O)CNC(=O)[C@@H](NC(=O)[C@H](Cc1ccccc1)NC(=O)[C@H](CCCNC(=N)N)NC(=O)[C@@H](N)CC(=O)O)C(C)C)C(N)=O, synthetic heptapeptide analog of neurokinin A, Fmoc solid-phase synthesis; also called Compound J; Cmpd J) [Heptapeptide analog J, Asp-Arg-Phe-Val-Gly-Leu-Nle-NH2]
**A:** 0.2
